Measured pIC50 (full-length human LSD1 (Homo sapiens (Human)))
pIC50: −log10 of the molar value.
measuredProperty: pIC50

1) CNC1CCN(c2cnc(-c3ccc4c(c3)ncn4C)c(-c3ccc(C#N)c(F)c3)n2)CC1; > 7.00
2) Cn1cc2ccc(-c3ncc(N4CCC(N)CC4)nc3-c3ccc(C#N)c(F)c3)cc2n1; > 7.00
3) Cc1ccc(-c2nc3ccn(CCCN)c3cc2-c2ccc(C#N)cc2)cc1; > 7.00
4) CNC1CCN(c2cnc(C#CC(C)(C)O)c(-c3ccc(C#N)c(F)c3)n2)CC1; > 7.00
5) CC(C)n1cnc2cc(-c3ncc(N4CCC(N)CC4)nc3-c3ccc(C#N)c(F)c3)c(F)cc21; > 7.00
6) Cc1ccc(-c2cnc(NC[C@H]3CCNC3)nc2-c2ccc(C#N)cc2)cc1; > 7.00
7) N#Cc1ccc(-c2nc(NC[C@H]3CCNC3)ncc2-c2ccc(F)cc2)cc1; > 7.00
8) CNC1CCN(c2cnc(-c3ccc4c(c3)nnn4C)c(-c3ccc(C#N)c(F)c3)n2)CC1; > 7.00
9) CN(C)C1CCN(c2cnc(-c3ccc4nn(C)cc4c3)c(-c3ccc(C#N)c(F)c3)n2)CC1; > 7.00
10) CNC1CCN(c2cnc(-c3cc4ncn(C)c4cc3F)c(-c3ccc(C#N)c(F)c3)n2)CC1; > 7.00
11) N#Cc1ccc(-c2nc(N3CC[C@@H]4CNC[C@@H]4CC3)ncc2-c2ccc(F)cc2)cc1; > 7.00
12) CC(C)n1cnc2cc(-c3ncc(N4CCC(N)CC4)nc3-c3ccc(C#N)c(F)c3)ccc21; > 7.00
13) Cc1ccc(-c2cc(NC[C@H]3CCNC3)nn2-c2ccc(C#N)cc2)cc1; > 7.00
14) Cc1ccc(-c2nc3ccn(CC4(F)CCNC4)c3cc2-c2ccc(C#N)cc2)cc1 (centres unmarked); > 7.00
15) CNC1CCN(c2cnc(-c3cnc4c(cnn4C)c3)c(-c3ccc(C#N)c(F)c3)n2)CC1; > 7.00
16) Cc1ccc(-c2cc(NC[C@@H]3CCNC3)nn2-c2ccc(C#N)cc2)cc1; > 7.00
17) Cc1ccc(-c2nc3ccn(C[C@H]4CNCCO4)c3cc2-c2ccc(C#N)cc2)cc1; > 7.00
